This collection of values is drawn from patent US7132425B2.

Quick reference for melting point among some compounds

1. CS(=O)(=O)c1ccc([C@@H](CC2CCCC2)C(=O)Nc2cnc(SCCO)cn2)cc1Cl :: 78 to 81 °C
2. CS(=O)(=O)c1ccc([C@@H](CC2CCCC2)C(=O)Nc2cnc(-c3noc(N)n3)cn2)cc1Cl :: 262 to 264 °C
3. CS(=O)(=O)c1ccc([C@@H](CC2CCCC2)C(=O)Nc2cnc(-c3ccoc3)cn2)cc1Cl :: 97 to 101 °C
4. CSc1cnc(NC(=O)[C@H](CC2CCCC2)c2ccc(S(C)(=O)=O)cc2)cn1 :: 71 to 77 °C

As a next step, examine the compound that follows.
Per the records, this compound ( C[S+]([O-])c1cnc(NC(=O)[C@H](CC2CCCC2)c2ccc(S(C)(=O)=O)c(Cl)c2)cn1 (some centres unmarked) ) has melting point equal to 88 to 95 °C

---

Measured melting point, listed per entry.

1. CS(=O)(=O)c1ccc([C@@H](CC2CCCC2)C(=O)Nc2cnc(C(=O)NO)cn2)cc1Cl :: 134 to 139 °C
2. CN(C)Cc1cnc(NC(=O)[C@H](CC2CCCC2)c2ccc(S(C)(=O)=O)c(Cl)c2)cn1 :: 88 to 91.5 °C
3. CS(=O)(=O)c1ccc([C@@H](CC2CCCC2)C(=O)Nc2cnc(-c3ccc(C#N)s3)cn2)cc1Cl :: 101 to 107 °C

# ---- query compound ----
Notebook: CC(=O)c1cnc(NC(=O)[C@H](CC2CCCC2)c2ccc(S(C)(=O)=O)c(Cl)c2)cn1 , melting point read as 77 to 80 °C
